- studySystem: Nucleic Acid
- measurementNotes: Displacement of methyl green dye from DNA after 24 hrs by spectrophotometric analysis
- Format: nucleic-acid assay
testReadout: IC50
Entry format: amount then unit.

[[record]]
compound = "Nc1ccc(C2=CC(c3ccc(Cl)cc3)N3N=C(S(N)(=O)=O)SC3=N2)cc1 (centres undefined)"
testreadout = "IC50"
readoutvalue = "64 µg/mL"

[[record]]
compound = "COc1ccc(C2C=C(c3ccc(N)cc3)N=C3SC(S(N)(=O)=O)=NN32)cc1 (centres undefined)"
testreadout = "IC50"
readoutvalue = "81 µg/mL"

[[record]]
compound = "NS(=O)(=O)C1=NN2C(=NC(c3ccccc3)=CC2c2cc([N+](=O)[O-])ccc2Cl)S1 (centres undefined)"
testreadout = "IC50"
readoutvalue = "80 µg/mL"


// switching to the query compound
Problem: Request - read-out IC50 | tested on Nucleic Acid | compound CC[n+]1c(-c2ccccc2)c2cc(N)ccc2c2ccc(N)cc21.[Br-] [HOMIDIUM BROMIDE]
Result: 1.4 µg/mL
